Data origin: ChEMBL document CHEMBL1153927

Ki tested on 5-hydroxytryptamine receptor 7 (Homo sapiens, UniProt P34969): recorded values
Sequence (P34969 whole entry): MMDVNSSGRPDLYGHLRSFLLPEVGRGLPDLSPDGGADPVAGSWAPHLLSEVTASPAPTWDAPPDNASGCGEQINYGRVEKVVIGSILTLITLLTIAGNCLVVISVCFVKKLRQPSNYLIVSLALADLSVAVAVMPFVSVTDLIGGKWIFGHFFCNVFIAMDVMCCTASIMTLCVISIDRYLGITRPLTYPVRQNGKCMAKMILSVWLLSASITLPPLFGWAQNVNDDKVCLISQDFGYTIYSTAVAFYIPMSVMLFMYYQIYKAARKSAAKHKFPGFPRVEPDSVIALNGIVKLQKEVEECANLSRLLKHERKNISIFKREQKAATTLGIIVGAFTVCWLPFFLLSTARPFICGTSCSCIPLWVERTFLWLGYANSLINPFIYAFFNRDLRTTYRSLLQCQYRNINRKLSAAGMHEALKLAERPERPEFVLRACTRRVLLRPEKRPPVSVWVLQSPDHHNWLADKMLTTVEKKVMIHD
Output spec: scalar in nM, unitless text.

Cc1ccccc1-n1c(=O)n(CCN2CCN(c3ccccc3)CC2)c2ccccc21    902
COc1ccc(-n2c(=O)n(CCCN3CCN(c4ccccc4OC)CC3)c3ccccc32)cc1    168
COc1ccccc1N1CCN(CCCn2c(=O)[nH]c3ccccc32)CC1    40
Cc1ccccc1N1CCN(CCn2c(=O)n(-c3ccccc3)c3ccccc32)CC1    1870
O=c1[nH]c2ccccc2n1CCCCCCN1CCN(c2ccccc2)CC1    20
Cc1ccccc1N1CCN(CCn2c(=O)n(-c3ccccc3C)c3ccccc32)CC1    18000
O=c1[nH]c2ccccc2n1CCCCN1CCN(c2ccccc2)CC1    48
COc1cccc(-n2c(=O)n(CCN3CCN(c4ccccc4C)CC3)c3ccccc32)c1    2500

Q. Answer with Ki of COc1ccccc1N1CCN(CCCCn2c(=O)[nH]c3ccccc32)CC1 measured for 5-hydroxytryptamine receptor 7 (Homo sapiens, UniProt P34969).
A. 26

Q. Answer with Ki of COc1ccccc1N1CCN(CCn2c(=O)[nH]c3ccccc32)CC1 measured for 5-hydroxytryptamine receptor 7 (Homo sapiens, UniProt P34969).
A. 1840

Q. Answer with Ki of O=c1[nH]c2ccccc2n1CCN1CCN(c2ccccc2)CC1 measured for 5-hydroxytryptamine receptor 7 (Homo sapiens, UniProt P34969).
A. 1030
